Hey, just so you know, these numbers are from ChEMBL document CHEMBL6103628.

# assay: Cytotoxicity against HDFa cells assessed as cell viability at 128 ug/mL measured after 20 hrs by XTT assay relative to control
# Type: toxicity, cell-based
# study.conditions: human, at 128 µg/mL, read-out: Activity
reported.endpoint: viability at 20 h, 128 ug/mL (%)
Entry rule: numbers only, all in %.

Exercise: Which value of viability at 20 h, 128 ug/mL has been reported for N#Cc1nccc(C(=O)NCc2nn(C(=O)Cc3ccccc3)c3ccccc23)n1 in the records?
Key: 67

====

Listed below: Ki values for each entry.
# experimental.target: Deubiquitinase and deneddylase Dub1 (Chlamydia trachomatis serovar L2 (strain ATCC VR-902B / DSM 19102 /434/Bu), UniProt B0B9A0)
# Sequence (B0B9A0 whole entry): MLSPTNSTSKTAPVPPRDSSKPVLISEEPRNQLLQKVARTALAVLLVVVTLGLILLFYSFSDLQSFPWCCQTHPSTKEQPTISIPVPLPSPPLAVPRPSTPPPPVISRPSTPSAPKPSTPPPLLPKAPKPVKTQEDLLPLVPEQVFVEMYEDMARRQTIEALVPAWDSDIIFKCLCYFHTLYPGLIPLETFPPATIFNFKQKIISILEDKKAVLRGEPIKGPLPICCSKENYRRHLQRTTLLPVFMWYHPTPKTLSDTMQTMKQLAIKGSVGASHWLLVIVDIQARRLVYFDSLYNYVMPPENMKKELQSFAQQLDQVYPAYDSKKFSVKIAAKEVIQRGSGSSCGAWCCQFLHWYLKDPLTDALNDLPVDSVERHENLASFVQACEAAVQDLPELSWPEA
# assay: Binding affinity to recombinant Chlamydia trachomatis DUB1 (130 to 401 residues) assessed as inhibition constant using Ub-Rh110Gly as fluorogenic substrate incubated for 360 mins by Michaelis-Menten analysis
Entry rule: numbers only, all in µM.

Exercise: Which value of Ki has been reported for N#Cc1nc(C(=O)NCc2c[nH]c3ccccc23)co1 in the records?
Key: 117

Exercise: Which value of Ki has been reported for N#Cc1nccc(C(=O)NCc2c[nH]c3ccccc23)n1 in the records?
Key: 314
